Cited source for all entries: patent US20240247031A1

# System: MCF-7
# protocolNotes: cells
# Format: cell-based, human
# measurementConditions: human, 48 h
Where a SMILES comes first, the peptide text is derived from it. [ ]: non-standard residue; d: D form. pGlu = O=C1CC[C@@H](C(=O)O)N1

{"columns": ["compound", "Cytotoxicity (IC50) MCF-7, µg/mL"],
 "data": [
  ["CCNC(=O)[C@@H]1CCCN1C(=O)[C@@H](NC(=O)[C@H](Cc1ccccc1)NC(=O)[C@H](C)NC(=O)[C@H](CC(C)C)NC(=O)[C@H](CCCNC(=N)N)NC(=O)[C@H](Cc1ccc(O)cc1)NC(=O)[C@H](CO)NC(=O)[C@H](Cc1c[nH]c2ccccc12)NC(=O)[C@H](Cc1c[nH]cn1)NC(=O)[C@@H]1CCC(=O)N1)[C@@H](C)CC [HS1004] ([pGlu]HWSYRLAFIP-NHEt; C-terminus assumed)", 37.47],
  ["CC(C)C[C@H](NC(=O)CNC(=O)[C@@H](NC(=O)[C@H](CO)NC(=O)[C@H](CC(C)C)NC(=O)[C@H](CC(C)C)NC(=O)[C@H](C)NC(=O)[C@@H]1CCCN1C(=O)[C@H](CCCNC(=N)N)NC(=O)[C@H](C)NC(=O)[C@@H](N)CCC(=O)O)[C@@H](C)O)C(=O)N[C@@H](CCCNC(=N)N)C(=O)N1CCC[C@H]1C(=O)N[C@@H](CCCCN)C(=O)O [HS1006] (H-EARPALLSTGLRPK-OH; N-terminus and C-terminus assumed)", 55.24],
  ["CC(C)C[C@H](NC(=O)[C@H](C)NC(=O)[C@@H]1CCCN1C(=O)[C@H](CCCNC(=N)N)NC(=O)[C@H](C)NC(=O)[C@@H](N)CCC(=O)O)C(=O)N[C@@H](CC(C)C)C(=O)N[C@@H](CO)C(=O)N[C@H](C(=O)N[C@@H](CCCNC(=N)N)C(=O)N[C@@H](Cc1ccccc1)C(=O)N[C@@H](CCCNC(=N)N)C(=O)N1CCC[C@H]1C(=O)N[C@@H](CCCCN)C(=O)O)[C@@H](C)O [HS1005] (H-EARPALLSTRFRPK-OH; N-terminus and C-terminus assumed)", 44.15]
]}
